Hello, the source for this data is the RNAGym collection of RNA variant scans (doi:10.1126/science.aae0568), in case you need it.

B1: tRNA (parent)
chain: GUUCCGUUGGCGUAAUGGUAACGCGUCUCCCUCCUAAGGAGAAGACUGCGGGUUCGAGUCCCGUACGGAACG

variants of: B1; experiment: yeast fitness relative to wild type (ratio to wild type); higher = fitter; tRNA-Arg(CCU), competitive growth, 37 C, YPD
Fewer inactive variants are shown than the library holds.
quantity: yeast fitness

| alteration | prefix operator | test result |
| --- | --- | --- |
| A43G G56A | = | 0.86 |
| C30G G68U | = | 0.64 |
| C4U U59C C61A | ≤ | 0.5 |
| G12C U13C U16A | = | 0.704 |
| G6A G17A A69U | = | 0.551 |
| U8C U16C | = | 0.861 |
| C5G A15G C61U | = | 0.539 |
| U3C U26C G44C U54A | ≤ | 0.5 |
| A14G C29U G41A U54G C55U A69U | ≤ | 0.5 |
| G25A A40C A65C | = | 0.739 |
| C24U C27U C29G G38C A42C | = | 0.577 |
| C31G A36U G39A C62U | ≤ | 0.5 |
| C11A C31G A42U C62A C66U A69U | ≤ | 0.5 |
| C5U A21G A57C | = | 0.562 |
| C4G C11A U19C G23C U47C | = | 0.663 |
| G17C G25C G50A U59C G68A | ≤ | 0.5 |
| U16C C33U A57G G63C | ≤ | 0.5 |
| C27U C55U C60U A70U | ≤ | 0.5 |
| C22G A43C C46A C61G A70C | ≤ | 0.5 |
| U8C A42U A70G | = | 0.729 |
| C5A A14C U26A C34U C55G | ≤ | 0.5 |
| G6A A15C C27A C61G A70U | = | 0.579 |
| U35C G50C U54A | ≤ | 0.5 |
| C5G A15U C61U | ≤ | 0.5 |
| A21C G23U G48C | ≤ | 0.5 |
| U19A C29G U54C G58A | ≤ | 0.5 |
| A40G A69U | = | 1.06 |
| G25A U32A C46U A57U | = | 0.609 |
| U26A U64G A65U A69C | ≤ | 0.5 |
| U35C A37U C46G U54C C61A | ≤ | 0.5 |
| C4A A20G C34G C66U | ≤ | 0.5 |
| G6C C27A C30G G41C C61G C62U A69U | ≤ | 0.5 |
| C5G G6A C29G | = | 0.533 |
| U13A A42U C66U | = | 0.704 |
| U7G C31U | = | 0.98 |
| U8C G23A A65C | = | 0.571 |
| G6A G38A | = | 0.812 |
| C29A A40C | = | 0.741 |
| G6A C11A C24U | ≤ | 0.5 |
| U16C C24U C29A U32A C46G A57C | = | 0.522 |
| G10A U54C G68A A70G | ≤ | 0.5 |
| C27U C30G A45C C60U C62G | = | 0.818 |
| G25A A43C G63C G67A | ≤ | 0.5 |
| C4G A45U G48C C49G | ≤ | 0.5 |
| U3A C30U G56A | ≤ | 0.5 |
| G6A C29G U32C A69C | ≤ | 0.5 |
| U13G A20U A42G U59A A65G | ≤ | 0.5 |
| U8A | = | 0.741 |
| A20U C24G C31G G52A C55G C61U | ≤ | 0.5 |
| U8C C33U A36C A43G A57U | ≤ | 0.5 |
| C27G U28A G52A C55U | ≤ | 0.5 |
| G9C G48A | = | 0.705 |
| C5U U35A A36G | = | 0.673 |
| A14G G18A U26A G50A | ≤ | 0.5 |
| C24U G51A G67A | = | 0.556 |
| U3C U8G U32A C33G A43U C61U C62U | ≤ | 0.5 |
| A14G A15C U35C C46A A69U | ≤ | 0.5 |
| C11U U16C U19C C62U A70G | = | 0.524 |
| U26A G67A | = | 0.905 |
| G18A C34U G48A A65C | ≤ | 0.5 |
| U35A A45C G56A | = | 0.636 |
| C29G G39C | = | 0.852 |
| C24G U28C A43U C60A | ≤ | 0.5 |
| A14U C49A A57G | = | 0.542 |
| A40U U47C A69U | = | 0.815 |
| C5U C46G A65G | = | 0.661 |
| G10A G38U G67C | ≤ | 0.5 |
| U19G C34G A69C | = | 0.504 |
| G6A C29G A69C | ≤ | 0.5 |
| G6A G48C G63C | = | 0.667 |
| A37C A42C C66A | = | 0.547 |
| U2G C5U A21C G48A G50C | ≤ | 0.5 |
| C4U C49A C66U | = | 0.612 |
| A15C U19A G39A | = | 0.519 |
